B1: PRDM14 peptide 196-211 (PR domain zinc finger protein 14), 16-mer library wild type / NSP3 SUD-M (ORF1ab Nsp3c SUD-M, residues 1356-1493) (parent)
chain 1: QFTEEDLHFVLYGVTP
chain 2: LPSIISNEKQEILGTVSWNLREMLAHAEETRKLMPVCVETKAIVSTIQRKYKGIKIQEGVVDYGARFYFYTSKTTVASLINTLNDLNETLVTMPLGYVTHGLNLEEAARYMRSLKVPATVSVSSPDAVTAYNGYLTSS

variants of: B1; details: with NSP3 SUD-M (ORF1ab Nsp3c SUD-M, residues 1356-1493); bait immobilised on MaxiSorp plates (10 µg), library pre-cleared on GST, 2 h binding at 4 °C, five washes; one round per day, days 1-4; value from days 2 and 3; keep out of graded; scale: average fractional NGS count over selection days 2 and 3
Recorded screen value by entry

Input sequence: chain 1 QFTEEDLHFDLYGVTP [chain 1 V10D]
screen value: 0
//
Input sequence: chain 1 QFTEEDLHFVLYGDTP [chain 1 V14D]
screen value: 3.47e-05
//
Input sequence: chain 1 QFTEEDLHFELYGVTP [chain 1 V10E]
screen value: 0
//
Input sequence: chain 1 QFQEEDLHFVLYGVTP [chain 1 T3Q]
screen value: 0
//
Input sequence: chain 1 QFTEEDLHFVLYGETP [chain 1 V14E]
screen value: 3.19e-05
//
Input sequence: chain 1 QFTEEDLHFVLYGNTP [chain 1 V14N]
screen value: 3.28e-05
//
Input sequence: chain 1 QFTEEDLHFVLYGVFP [chain 1 T15F]
screen value: 0
//
Input sequence: chain 1 QFTEEDLHFVGYGVTP [chain 1 L11G]
screen value: 0
//
Input sequence: chain 1 QFTNEDLHFVLYGVTP [chain 1 E4N]
screen value: 0
//
Input sequence: chain 1 QFTEEDLHDVLYGVTP [chain 1 F9D]
screen value: 0
//
Input sequence: chain 1 QFTEEDLHFHLYGVTP [chain 1 V10H]
screen value: 0
//
Input sequence: chain 1 QFTEEDLSFVLYGVTP [chain 1 H8S]
screen value: 2.39e-05
//
Input sequence: chain 1 QFTEEDLHFKLYGVTP [chain 1 V10K]
screen value: 0
//
Input sequence: chain 1 QFTEEDLHFVLYGQTP [chain 1 V14Q]
screen value: 0
//
Input sequence: chain 1 QFTEEDLHFVEYGVTP [chain 1 L11E]
screen value: 0
//
Input sequence: chain 1 QYTEEDLHFVLYGVTP [chain 1 F2Y]
screen value: 0
//
Input sequence: chain 1 QFTEEDIHFVLYGVTP [chain 1 L7I]
screen value: 1.23e-05
//
Input sequence: chain 1 QFTFEDLHFVLYGVTP [chain 1 E4F]
screen value: 1.23e-05

All figures here come from paper PMC12102759.
